meta.source: ChEMBL document CHEMBL4014339

- EXPERIMENTAL_TARGET: Nucleotide-binding oligomerization domain-containing protein 1 (Homo sapiens)
- METHOD_SUMMARY: Antagonist activity at human NOD1 expressed in HEK-blue cells assessed as inhibition of C12-iE-DAP-stimulated cell activation at 5 uM preincubated for 3 hrs followed by C12-iE-DAP addition measured after 20 hrs by SEAP reporter gene assay
- Assay type: cell-based
Quick reference for inhibition among some compounds

{"SMILES_INPUT": "COC(=O)CC[C@H]1NC(=O)c2cc(Oc3cccc(N(C)C)c3)c(NC(=O)COCc3ccccc3Cl)cc2NC1=O", "inhibition, %": -5.97}
{"SMILES_INPUT": "CCN(CC)C(=O)CC[C@H]1NC(=O)c2cc(Oc3cccc(N(C)C)c3)c(NC(=O)COCc3ccccc3)cc2NC1=O", "inhibition, %": 80.5}
{"SMILES_INPUT": "COC(=O)CC[C@H]1NC(=O)c2cc(Oc3cc(Cl)c(Cl)c(N(C)C)c3Cl)c(NC(=O)COCc3ccccc3)cc2NC1=O", "inhibition, %": 79.8}
{"SMILES_INPUT": "COC(=O)CC[C@H]1NC(=O)c2cc(Oc3cc(N(C)C)cc(Cl)c3Cl)c(NC(=O)COCc3ccccc3)cc2NC1=O", "inhibition, %": -5.19}
{"SMILES_INPUT": "COC(=O)CC[C@H]1NC(=O)c2cc(Oc3cccc(N4CCCC4)c3)c(NC(=O)COCc3ccc(Cl)cc3)cc2NC1=O", "inhibition, %": 80.9}
{"SMILES_INPUT": "COC(=O)CC[C@H]1NC(=O)c2cc(Oc3cccc(N(C)C)c3)c(NC(=O)COCc3ccc(OC)cc3)cc2NC1=O", "inhibition, %": 8.57}
{"SMILES_INPUT": "COC(=O)CC[C@H]1NC(=O)c2cc(Oc3cccc(N(C)C)c3)c(NC(=O)COCc3ccc(Cl)c(Cl)c3)cc2NC1=O", "inhibition, %": 36}
